What follows is a record of Toxicity for HepG2 cells.

- compound: "C[C@@H]1C[C@H]2[C@@H]3CCC4=CC(=O)C=C[C@]4(C)[C@@]3(F)[C@@H](O)C[C@]2(C)[C@@]1(O)C(=O)CO"
  endpoint result: "None"
- compound: "C[C@]12CC[C@H](OS(=O)(=O)O)CC1=CC[C@@H]1[C@@H]2CC[C@]2(C)C(=O)CC[C@@H]12 [AN12, 5-Androsten-3β-sulfate-17-one]"
  endpoint result: "None"
- compound: "C[C@@]12CCC[C@H]1[C@@H]1CC[C@@H]3C[C@H](O)CC[C@]3(C)[C@H]1CC2"
  endpoint result: "None"
- compound: "C[C@H](CCC(=O)NCCS(=O)(=O)O)[C@H]1CC[C@H]2[C@@H]3CC[C@@H]4C[C@H](OS(=O)(=O)O)CC[C@]4(C)[C@H]3CC[C@]12C"
  endpoint result: "None"
- compound: "CC(=O)[C@H]1CC[C@H]2[C@@H]3CC[C@H]4C[C@H](O)CC[C@]4(C)[C@H]3CC[C@]12C"
  endpoint result: "None"

q: Report Toxicity for `CCOP(=O)(OCC)C(=Cc1cc(C(C)(C)C)c(O)c(C(C)(C)C)c1)P(=O)(OCC)OCC` please.
a: 10 µM

* * *

- experimental target: human PXR (Homo sapiens)
- Sequence (O75469 whole entry): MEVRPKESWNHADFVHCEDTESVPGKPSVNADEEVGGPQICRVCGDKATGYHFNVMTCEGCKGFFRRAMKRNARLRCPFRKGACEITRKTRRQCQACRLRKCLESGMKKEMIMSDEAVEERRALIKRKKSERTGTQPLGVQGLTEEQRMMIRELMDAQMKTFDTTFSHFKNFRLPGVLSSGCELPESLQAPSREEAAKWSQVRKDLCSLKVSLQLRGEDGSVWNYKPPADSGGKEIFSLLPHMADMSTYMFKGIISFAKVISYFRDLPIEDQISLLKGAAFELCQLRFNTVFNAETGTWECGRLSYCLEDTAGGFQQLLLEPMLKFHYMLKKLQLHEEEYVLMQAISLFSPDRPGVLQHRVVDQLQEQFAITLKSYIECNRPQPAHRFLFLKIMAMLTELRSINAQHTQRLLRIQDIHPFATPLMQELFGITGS
- procedure summary: PXR activation luciferase reporter assay, human PXR in HepG2-NTCP cells
- condition label: -log(EC50), EC50 in molar units, activation of human PXR
assay readout: hPXR Activity
Give the figure by itself; no unit, no explanation.

Example entries and their recorded answers appear below.
- compound: "C[C@]12CC[C@@H](O)C[C@@H]1CC[C@@H]1[C@@H]2[C@@H](O)C[C@]2(C)[C@@H](C(=O)CO)CC[C@@H]12 [PR20, 5α-Pregnan-3α,11β,21-triol-20-one]"
  hPXR Activity: 4.90
- compound: "C[C@H](CCCOS(=O)(=O)O)[C@H]1CC[C@H]2[C@@H]3[C@H](O)C[C@H]4C[C@H](O)CC[C@]4(C)[C@H]3C[C@H](O)[C@]12C [BI30, 5α-Cholan-3α,7α,12α-triol-24-sulfate]"
  hPXR Activity: 4.55
- compound: "C[C@H](O)[C@H]1CC[C@H]2[C@@H]3CC[C@H]4C[C@H](O)CC[C@]4(C)[C@H]3CC[C@]12C [PR15, 5α-Pregnan-3α,20α-diol]"
  hPXR Activity: 4.28

Now look at this one.
q: Report hPXR Activity for C[C@]12CC[C@H]3[C@@H](CCC4=CC(=O)CC[C@@]43C)[C@@H]1CC[C@H]2O[C@@H]1O[C@H](C(=O)O)[C@@H](O)[C@H](O)[C@H]1O [AN16, 4-Androsten-17α-glucosiduronate-3-one] please.
a: 4.86

* * *

- experimental target: zebrafish PXR (Danio rerio)
- Sequence (A5WYG8 144-430): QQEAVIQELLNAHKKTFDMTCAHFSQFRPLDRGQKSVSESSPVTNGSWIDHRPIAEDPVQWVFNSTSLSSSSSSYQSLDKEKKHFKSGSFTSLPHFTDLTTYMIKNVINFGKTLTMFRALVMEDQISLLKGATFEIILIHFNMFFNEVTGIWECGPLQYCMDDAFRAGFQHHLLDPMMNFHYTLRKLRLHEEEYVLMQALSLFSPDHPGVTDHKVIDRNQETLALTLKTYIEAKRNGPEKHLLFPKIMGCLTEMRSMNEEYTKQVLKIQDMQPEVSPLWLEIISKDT
- condition label: -log(EC50), EC50 in molar units, activation of zebrafish PXR
assay readout: zfPXR Activity

Example entries and their recorded answers appear below.
- compound: "CC(CCC[C@@H](C)[C@H]1[C@H](O)C[C@H]2[C@@H]3[C@H](O)C[C@H]4C[C@@H](OS(=O)(=O)O)CC[C@]4(C)[C@H]3CC[C@]12C)COS(=O)(=O)O (stereo partly drawn) [BI39, 5α-Cholestan-7α,16α-diol-3β,27-disulfate]"
  experimental target: "zebrafish PXR (Danio rerio)"
  zfPXR Activity: "None"
- compound: "C[C@]12CC[C@H]3[C@@H](CCC4=CC(=O)CC[C@@]43C)[C@@H]1CC[C@H]2O[C@@H]1O[C@H](C(=O)O)[C@@H](O)[C@H](O)[C@H]1O [AN16, 4-Androsten-17α-glucosiduronate-3-one]"
  experimental target: "zebrafish PXR (Danio rerio)"
  zfPXR Activity: "None"
- compound: "C[C@@H](O)[C@@]1(O)CC[C@H]2[C@@H]3CCC4=CC(=O)CC[C@]4(C)[C@H]3CC[C@@]21C"
  experimental target: "zebrafish PXR (Danio rerio)"
  zfPXR Activity: "None"
- compound: "C[C@]12CC[C@@H]3c4ccc(O)cc4CC[C@H]3[C@@H]1[C@@H](O)[C@@H](O)[C@@H]2O"
  experimental target: "zebrafish PXR (Danio rerio)"
  zfPXR Activity: "None"

q: Please provide the recorded zfPXR Activity for NC(=O)N1c2ccccc2C2OC2c2ccccc21 (stereo not drawn) [MI8, Carbamazepine epoxide] , tested on zebrafish PXR (Danio rerio).
a: None

q: Subsequent entry: `C[C@H](CCC(=O)NCCS(=O)(=O)O)[C@H]1CC[C@H]2[C@@H]3CC[C@@H]4C[C@H](OS(=O)(=O)O)CC[C@]4(C)[C@H]3CC[C@]12C`
a: None

q: Subsequent entry: C[C@]12CC[C@H](OS(=O)(=O)O)CC1=CC[C@@H]1[C@@H]2CC[C@]2(C)C(=O)CC[C@@H]12 [AN12, 5-Androsten-3β-sulfate-17-one]
a: None

q: Subsequent entry: `C[C@]12CC[C@@H](O)C[C@H]1CC[C@@H]1[C@@H]2C(=O)C[C@@]2(C)[C@H]1CC[C@]2(O)C(=O)CO`
a: 4.43

q: Subsequent entry: `C[C@H](O)[C@H]1CC[C@H]2[C@@H]3CC[C@H]4C[C@H](O)CC[C@]4(C)[C@H]3CC[C@]12C`
a: 4.58

q: Subsequent entry: `C[C@]12CC[C@@H](O)C[C@H]1CC[C@@H]1[C@@H]2[C@@H](O)C[C@]2(C)C(=O)CC[C@@H]12`
a: 4.52

q: Subsequent entry: `C[C@H](CCCO)[C@H]1CC[C@H]2[C@@H]3[C@H](O)C[C@H]4CC(=O)CC[C@]4(C)[C@H]3C[C@H](O)[C@]12C`
a: None

q: Subsequent entry: `COc1c(O)ccc2c1CC[C@@H]1[C@@H]2CC[C@]2(C)C(=O)CC[C@@H]12`
a: 5.62

q: Subsequent entry: C[C@H](CCC(O)C(CO)CO)[C@H]1CC[C@H]2[C@@H]3[C@H](O)C[C@@H]4C[C@H](O)CC[C@]4(C)[C@H]3C[C@H](O)[C@]12C (stereo partly drawn) [BI35, 5β-Cholestan-3α,7α,12α,24,26-hexol]
a: None

q: Subsequent entry: CCCCOC(=O)c1ccccc1 [MI5, Butylbenzoate]
a: None

q: Subsequent entry: `Nc1cccc(C(=O)O)c1`
a: None

q: Subsequent entry: `CC(=O)[C@H]1[C@H](C#N)C[C@H]2[C@@H]3CC=C4C[C@@H](O)CC[C@]4(C)[C@H]3CC[C@@]21C`
a: None

q: Subsequent entry: `C[C@H]([C@H](O)CCC(C)(C)O)[C@H]1CC[C@@]2(O)C3=CC(=O)[C@@H]4C[C@@H](O)[C@@H](O)C[C@]4(C)[C@H]3CC[C@]12C`
a: None

q: Subsequent entry: `O=S(=O)(c1ccccc1)N(CC(F)(F)F)c1ccc(C(O)(C(F)(F)F)C(F)(F)F)cc1`
a: None

q: Subsequent entry: `C[C@H](CCCC(CO)CO)[C@H]1CC[C@H]2[C@@H]3[C@H](O)C[C@@H]4C[C@H](O)CC[C@]4(C)[C@H]3C[C@H](O)[C@]12C`
a: None

q: Subsequent entry: CC(O)C1CCC2C3CCC4CC(O)CCC4(C)C3CCC12C (stereo not drawn)
a: None

q: Subsequent entry: C[C@]12CC[C@@H]3c4ccc(OC5O[C@H](C(=O)O)[C@@H](O)[C@H](O)[C@H]5O)cc4CC[C@H]3[C@@H]1CC[C@@H]2O (stereo partly drawn)
a: None

q: Subsequent entry: `CO[C@H]1/C=C/O[C@@]2(C)Oc3c(C)c(O)c4c(O)c(c(/C=N/N5CCN(C)CC5)c(O)c4c3C2=O)NC(=O)/C(C)=C\C=C\[C@H](C)[C@H](O)[C@@H](C)[C@@H](O)[C@@H](C)[C@H](OC(C)=O)[C@@H]1C`
a: None

q: Subsequent entry: `Clc1cnc(Oc2ccc(Oc3ncc(Cl)cc3Cl)cc2)c(Cl)c1`
a: None

q: Subsequent entry: `C[C@]12CC[C@@H](O)C[C@H]1CC[C@@H]1[C@@H]2[C@@H](O)C[C@@]2(C)[C@H]1CC[C@]2(O)C(=O)CO`
a: 3.94
